# Lookup of reported COX-1 activity (% of control) keyed by entry
# target.entity: Ovine COX-1 (Ovis aries)
# Construct: purchased Cayman Chemical Co. 60100
# Sequence (P05979 25-600): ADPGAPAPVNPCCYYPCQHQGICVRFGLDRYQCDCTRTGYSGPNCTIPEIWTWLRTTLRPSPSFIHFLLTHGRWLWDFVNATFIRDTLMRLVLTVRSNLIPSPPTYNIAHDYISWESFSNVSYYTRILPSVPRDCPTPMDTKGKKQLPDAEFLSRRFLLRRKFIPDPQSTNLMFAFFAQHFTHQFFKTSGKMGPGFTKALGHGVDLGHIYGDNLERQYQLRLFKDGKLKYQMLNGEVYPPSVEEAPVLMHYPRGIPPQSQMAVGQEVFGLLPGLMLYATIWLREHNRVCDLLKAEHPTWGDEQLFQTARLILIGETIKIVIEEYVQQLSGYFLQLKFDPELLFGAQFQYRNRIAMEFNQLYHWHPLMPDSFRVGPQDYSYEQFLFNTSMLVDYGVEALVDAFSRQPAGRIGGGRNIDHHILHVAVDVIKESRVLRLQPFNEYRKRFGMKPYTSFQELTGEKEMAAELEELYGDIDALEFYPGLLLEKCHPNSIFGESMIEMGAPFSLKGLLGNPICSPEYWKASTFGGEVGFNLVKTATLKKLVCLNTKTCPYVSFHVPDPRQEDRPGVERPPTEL
# measurement.description: COX-1 oxygenation of arachidonic acid, oxygen electrode
# Type: biochemical
# condition.description: 1000 µM NSAID; 10 µM AA; initial activity 10-30 s; mean ± s.e.m., n = 3
# Experimental: The assay was performed according to Meade et al. with minor modifications using an oxygen electrode chamber with integral stirring (Oxygraph System, Hansatech Instruments, King’s Lynn, U.K.). […] Change in oxygen consumption was monitored for approximately 5 min. FAAH inhibition was calculated using log(inhibitor) vs. response with variable slope (four parameters) algorithm in the GraphPad Prism computer program (GraphPad Software Inc., San Diego, CA. USA). […]

Please review the entries below; each comes with its answer.
INSERT INTO assay_data (compound, value) VALUES
  ('CC(C(=O)O)c1ccc(-c2ccc(O)cc2)c(F)c1 (stereo not shown)', '6±6 % of control'),
  ('CC(C(=O)O)c1ccc(CC(C)(C)O)cc1 (stereo not shown)', '95±3 % of control'),
  ('CC(C(=O)O)c1ccc(C(O)C(C)C)cc1 (stereo not shown)', '102±18 % of control');

Then there is this compound:
Input line: # returns recorded COX-1 activity (% of control) (system: Ovine COX-1 (Ovis aries)) for CC(CO)Cc1ccc(C(C)C(=O)O)cc1 (stereo not shown)
Output line: 68±15 % of control
